- Study System: full length active recombinant SYK enzyme (Homo sapiens)
- Construct: full length active recombinant SYK enzyme (Millipore, Calif.)
- Experiment Notes: Inhibition of Syk tyrosine phosphorylation activity (LANCE TR-FRET kinase assay)
pIC50: −log10 of the molar value.
Measured pIC50 values are reported for all entries that follow.

Below: 10 compounds and their reported pIC50.
query: Hello, please tell me recorded pIC50 for this one: `COc1nc(NCC(N)=O)nc(Nc2cc(C)cc(C)c2)c1C(N)=O`
result: 6.00 to 7.00

query: Specify measured pIC50 for `C[C@H](N)CNc1nc(Nc2ccc3ncccc3c2)c(C(N)=O)c(=O)[nH]1` .
result: 8.00 to 9.00

query: Please give the documented pIC50 of `CC(C)[C@@H](Nc1nc(Nc2cccc(-n3nccn3)c2)c(C(N)=O)c(=O)[nH]1)C(N)=O`
result: 8.00 to 9.00

query: Give me measured pIC50, please, for this compound: `CC(C)C[C@@H](Nc1nc(Nc2cnn(C)c2)c(C(N)=O)c(=O)[nH]1)C(N)=O`
result: 8.00 to 9.00

query: Kindly indicate its recorded pIC50. Item: `CC[C@@H](Nc1nc(Nc2cccc(OC(F)(F)F)c2)c(C(N)=O)c(=O)[nH]1)C(N)=O`
result: 8.00 to 9.00

query: Using known records, supply pIC50 for `CC(C)C[C@@H](Nc1nc(Nc2cccc(-n3nccn3)c2)c(C(N)=O)c(=O)[nH]1)C(N)=O`
result: 7.00 to 8.00

query: Supply measured pIC50 of `Cc1cccc(Nc2nc(Nc3ccc(S(N)(=O)=O)cc3)nc(O)c2C(N)=O)c1` in your reply.
result: 6.00 to 7.00

query: Let me know recorded pIC50 for `Cc1cc(C)cc(Nc2nc(N[C@@H](CN)C(C)C)[nH]c(=O)c2C(N)=O)c1` , thanks.
result: 8.00 to 9.00

query: Hello, please tell me recorded pIC50 for this one: `NC(=O)c1c(Nc2cccc(-n3nccn3)c2)nc(N[C@@H]2CCCNC2)[nH]c1=O`
result: > 9.00

query: Using known records, supply pIC50 for `COc1nc(N[C@@H](C(N)=O)C(C)C)nc(Nc2ccc3ncccc3c2)c1C(N)=O`
result: 7.00 to 8.00

Further cases:
query: Name the recorded pIC50 of the compound listed here: `Cc1cc(C)cc(Nc2nc(Nc3ccc(S(N)(=O)=O)cc3)[nH]c(=O)c2C(N)=O)c1`
result: 6.00 to 7.00

query: Output measured pIC50 for this item: `CC[C@@H](Nc1nc(Nc2ccc3ncsc3c2)c(C(N)=O)c(=O)[nH]1)C(N)=O`
result: > 9.00

query: Note down pIC50 recorded for `COc1nc(N[C@@H](C(N)=O)c2ccccc2)nc(Nc2cc(C)cc(C)c2)c1C(N)=O`
result: 6.00 to 7.00

query: Could you please provide reported pIC50 for `CC(C)C[C@@H](Nc1nc(Nc2cccc(-n3cccn3)c2)c(C(N)=O)c(=O)[nH]1)C(N)=O` ? Thanks!
result: 8.00 to 9.00

query: Specify reported pIC50 for the compound shown: `CNC(=O)[C@@H](CC(C)C)Nc1nc(Nc2cccc(-n3cccn3)c2)c(C(N)=O)c(=O)[nH]1`
result: < 6.00

query: Please give measured pIC50 of the following entry: `COc1cccc(Nc2nc(N[C@H](CC(C)C)C(N)=O)[nH]c(=O)c2C(N)=O)c1`
result: 8.00 to 9.00

###

- Study System: full length active recombinant SYK enzyme (Homo sapiens)
- Construct: full length active recombinant SYK enzyme (Millipore, Calif.)
- Experiment Notes: Inhibition of Syk tyrosine phosphorylation activity (LANCE TR-FRET kinase assay)
Attribute Measured: IC50

Take a look at these entries with their results.
query: Please give measured IC50 of the following entry: `CC[C@@H](Nc1nc(Nc2ccc(-n3ccnc3)cc2)c(C(N)=O)c(=O)[nH]1)C(N)=O`
result: 1 to 10 nM

query: Supply reported IC50 belonging to this compound: `CC[C@@H](Nc1nc(Nc2cccc(-c3ccccn3)c2)c(C(N)=O)c(=O)[nH]1)C(N)=O`
result: 1 to 10 nM

query: Given the compound `CC(=O)N1CCN(c2ccc(Nc3nc(Nc4cc(C)cc(C)c4)c(C(N)=O)c(=O)[nH]3)cc2)CC1` , write its reported IC50.
result: > 1000 nM

query: Specify IC50 for `Cc1cc(C)cc(Nc2nc(NC3CC3)[nH]c(=O)c2C(N)=O)c1` and stop.
result: > 1000 nM

query: Give the measured IC50 for `CC(C)C[C@@H](Nc1nc(Nc2ccc(-c3ccncc3)cc2)c(C(N)=O)c(=O)[nH]1)C(N)=O`
result: 1 to 10 nM

More entries:
query: Name the recorded IC50 of the compound listed here: `CC(=O)N1CCN(c2ccc(Nc3nc(Nc4ccc(N5CCN(C(C)=O)CC5)cc4)c(C(N)=O)c(=O)[nH]3)cc2)CC1`
result: > 1000 nM

query: State its IC50: `Cc1cccc(Nc2nc(N[C@H](CC(C)C)C(N)=O)[nH]c(=O)c2C(N)=O)c1`
result: 1 to 10 nM

query: Consider the compound `CNCCNc1nc(Nc2cccc(C)c2)c(C(N)=O)c(=O)[nH]1` . State its measured IC50.
result: 10 to 100 nM

###

Catalogue of molecules with associated pIC50
- Study System: full length active recombinant SYK enzyme (Homo sapiens, UniProt P43405)
- Construct: full length active recombinant SYK enzyme (Millipore, Calif.)
- Experiment Notes: Inhibition of Syk tyrosine phosphorylation activity (LANCE TR-FRET kinase assay)
- Protocol: This example illustrates methods for evaluating the compounds of the invention, along with results obtained for such assays. The in vitro and in vivo human Syk activities of the inventive compounds can be determined by various procedures known in the art, such as a test for their ability to inhibit the activity of human plasma Syk. […] SYK tyrosine phosphorylation activity is measured using the LANCE™ Technology developed by Perkin Elmer Life and Analytical Sciences (Boston, Mass.). […]
pIC50: −log10 of the molar value.

query: Retrieve pIC50 on full length active recombinant SYK enzyme (Homo sapiens, UniProt P43405); query `CC(C)C[C@@H](Nc1nc(Nc2cccc(-c3ncccn3)c2)c(C(N)=O)c(=O)[nH]1)C(N)=O`
result: 8.00 to 9.00

query: Give pIC50 for `CC(C)C[C@@H](Nc1nc(Nc2ccc(-c3ccccn3)cc2)c(C(N)=O)c(=O)[nH]1)C(N)=O` tested on full length active recombinant SYK enzyme (Homo sapiens, UniProt P43405).
result: 8.00 to 9.00

query: Retrieve pIC50 on full length active recombinant SYK enzyme (Homo sapiens, UniProt P43405); query `CC(C)C[C@@H](Nc1nc(Nc2cccc(-n3ccnc3)c2)c(C(N)=O)c(=O)[nH]1)C(N)=O`
result: 8.00 to 9.00

query: Please indicate recorded pIC50 of `NC(=O)c1c(NC2CCC2)nc(Nc2ccc(S(N)(=O)=O)cc2)[nH]c1=O` measured with full length active recombinant SYK enzyme (Homo sapiens, UniProt P43405).
result: < 6.00

New cases:
query: For full length active recombinant SYK enzyme (Homo sapiens, UniProt P43405), give pIC50 of the listed molecule: `CC(C)[C@@H](Nc1nc(Nc2ccc3ncsc3c2)c(C(N)=O)c(=O)[nH]1)C(N)=O`
result: > 9.00

query: Look up full length active recombinant SYK enzyme (Homo sapiens, UniProt P43405) data: pIC50 of `CC(=O)N1CCN(c2ccc(Nc3nc(NC4CCC4)c(C(N)=O)c(=O)[nH]3)cc2)CC1` , then report it.
result: < 6.00

query: Tell me its pIC50 on full length active recombinant SYK enzyme (Homo sapiens, UniProt P43405): `COc1nc(N[C@H](CC(C)C)C(N)=O)nc(Nc2cc(C)cc(C)c2)c1C(N)=O`
result: 6.00 to 7.00

query: Consider the molecule `Cc1cc(C)cc(Nc2nc(N[C@@H](C(N)=O)C(C)C)[nH]c(=O)c2C(N)=O)c1` tested on full length active recombinant SYK enzyme (Homo sapiens, UniProt P43405); state its pIC50.
result: 8.00 to 9.00

###

// pIC50 lookup, one value per entry
- Study System: full length active recombinant SYK enzyme (Homo sapiens)
- Construct: full length active recombinant SYK enzyme (Millipore, Calif.)
- Experiment Notes: Inhibition of Syk tyrosine phosphorylation activity (LANCE TR-FRET kinase assay)
pIC50: −log10 of the molar value.

Examples from the recorded data:
query: Please indicate pIC50 recorded for `CC(=O)N(C)c1ccc(Nc2nc(NC3CC3)[nH]c(=O)c2C(N)=O)cc1`
result: < 6.00

query: State, in one line, measured pIC50 of `CC(C)C[C@@H](Nc1nc(Nc2cccc(OC(F)F)c2)c(C(N)=O)c(=O)[nH]1)C(N)=O`
result: 8.00 to 9.00

query: Indicate the recorded pIC50 value for this molecule: `CC(C)[C@@H](Nc1nc(Nc2cccc(-c3ncccn3)c2)c(C(N)=O)c(=O)[nH]1)C(N)=O`
result: 7.00 to 8.00

query: Give recorded pIC50. `CC[C@@H](Nc1nc(Nc2cccc(-n3ccnc3)c2)c(C(N)=O)c(=O)[nH]1)C(N)=O`
result: 8.00 to 9.00

query: Let me know recorded pIC50 for `Cc1cc(C)cc(Nc2nc(NCC(N)=O)[nH]c(=O)c2C(N)=O)c1` , thanks.
result: 7.00 to 8.00

query: Give the reported value of pIC50 for this record: `COc1ccc(Nc2nc(N[C@H](CC(C)C)C(N)=O)[nH]c(=O)c2C(N)=O)cc1OC`
result: > 9.00

query: Dear colleague, please send me the reported pIC50 for `CC(C)C[C@@H](Nc1nc(Nc2cccc(OC(F)(F)F)c2)c(C(N)=O)c(=O)[nH]1)C(N)=O` when you can.
result: 8.00 to 9.00

Read the next record carefully.
query: Provide only the value of recorded pIC50 for `CCNc1nc(Nc2cccc(C)c2)c(C(N)=O)c(OCCCN)n1`
result: < 6.00

Entry source: patent US20130317029A1
